test: Tmax in human plasma expressing CYP2C9*3 allele carrier polymorphism treated with losartan at 50 mg by LC/MS/MS analysis
Format: ADME, organism-based
experimental_endpoint: Tmax

molecule="CCCCc1nc(Cl)c(C(=O)O)n1Cc1ccc(-c2ccccc2-c2nn[nH]n2)cc1 [CARBOXYLIC ACID METABOLITE]" experimental_endpoint=Tmax observed_result="4.3 h"

###

test: AUC in human plasma expressing CYP2C9*2 allele carrier polymorphism treated with losartan at 50 mg by LC/MS/MS analysis
Format: ADME, organism-based
experimental_endpoint: AUC (ng·h/mL)

compound="CCCCc1nc(Cl)c(C(=O)O)n1Cc1ccc(-c2ccccc2-c2nn[nH]n2)cc1 [CARBOXYLIC ACID METABOLITE]" unit_of_measure=ng·h/mL observed_result=1770
